Tested on: PPARγ
Assay: PPARγ mRNA expression in adipocytes (real-time PCR)
Format: cell-based, human
Conditions: differentiating adipocytes transfected with oligomeric compound
Procedure: Expression of the four hallmark genes, HSL, aP2, Glut4, and PPARγ, is also measured in adipocytes transfected with oligomeric compounds of the invention. Cells are lysed on day nine post-transfection and total RNA is harvested. The amount of total RNA in each sample is determined using a Ribogreen Assay (Invitrogen Life Technologies, Carlsbad, Calif.). […]
In the oligonucleotide strings, read from the 5' end, every base follows the letter of its sugar. An asterisk marks phosphorothioate; unmarked linkages are phosphodiester. Other units and linkages are bracketed, terminal groups are in braces. A string of capitals states the bases alone. e = 2'-O-(2-methoxyethyl) (MOE); [5mC] = 5-methylcytosine; d = 2'-deoxy (DNA)
Reported PPAR gamma mRNA by item:

• 327937 (antisense eG*eA*eT*eT*e[5mC]*eA*e[5mC]*eA*eA*e[5mC]*eA*e[5mC]*e[5mC]*eA*eG*e[5mC]*eT) [compound 327937] = 92 percentage of untreated control (UTC)
• 328685 (e[5mC]*eG*eG*e[5mC]*e[5mC]*dG*dG*dA*dG*d[5mC]*d[5mC]*dA*dT*dA*dG*eA*e[5mC]*eT*e[5mC]*eG; antisense) [compound 328685] = 91 percentage of untreated control (UTC)
• 328093 (antisense eT*eA*eA*eA*e[5mC]*eA*eT*e[5mC]*eA*e[5mC]*eT*eG*e[5mC]*eA*eA*eG*eT*e[5mC]*eT*eT*eA) [compound 328093] = 99 percentage of untreated control (UTC)

Proceed to the following item.
Asked: # lookup: PPAR gamma mRNA of 328132 (antisense eG*eT*eG*eA*eG*eA*eG*eT*eA*eG*e[5mC]*eA*eT*eG*eT*eT*eT*eG*eT*e[5mC]*eT) [compound 328132]
Given back: 94 percentage of untreated control (UTC)

* * *

Expression of mir-15a pri-miRNA (% UTC) values for the substances below.
system: mir-15a pri-miRNA; experiment: mir-15a pri-miRNA expression in HepG2 cells (real-time RT-PCR); format: cell-based, human; details: HepG2 cells, 100 nM, real-time RT-PCR
In the oligonucleotide strings, read from the 5' end, every base follows the letter of its sugar. An asterisk marks phosphorothioate; unmarked linkages are phosphodiester. Other units and linkages are bracketed, terminal groups are in braces. A string of capitals states the bases alone. e = 2'-O-(2-methoxyethyl) (MOE); [5mC] = 5-methylcytosine; d = 2'-deoxy (DNA)
Note: unit % UTC is implicit; provide only the numeric part.

Past entries and their recorded results:
- 347982 (eT*eT*e[5mC]*eA*eG*dA*dA*dG*dA*dT*d[5mC]*dA*dG*dA*dT*e[5mC]*e[5mC]*eT*eT*eG; antisense) [compound 347982]: 82.2
- 347975 (eT*eT*eT*eT*eG*dA*dG*dG*d[5mC]*dA*dG*d[5mC]*dA*d[5mC]*dA*eA*eT*eA*eT*eG; antisense) [compound 347975]: 9.2

Asked: Can you look up Expression of mir-15a pri-miRNA (% UTC) on mir-15a pri-miRNA for 347972 (eA*eG*e[5mC]*eA*e[5mC]*dA*dA*dT*dA*dT*dG*dG*d[5mC]*d[5mC]*dT*eG*e[5mC]*eA*e[5mC]*e[5mC]; antisense) [compound 347972] ?
Given back: 98.6

* * *

system: aP2; test: aP2 mRNA expression in adipocytes (real-time PCR); format: cell-based, human; details: adipocytes, 250 nM oligomeric compound, day nine post-transfection, relative to control (1.0); Table 16
In the oligonucleotide strings, read from the 5' end, every base follows the letter of its sugar. An asterisk marks phosphorothioate; unmarked linkages are phosphodiester. Other units and linkages are bracketed, terminal groups are in braces. A string of capitals states the bases alone. e = 2'-O-(2-methoxyethyl) (MOE); [5mC] = 5-methylcytosine
Reported AP2 (mRNA expression) values for a set of substances
Form: value (number only, do not type unit).

• 327888 (antisense eA*eA*eT*eG*e[5mC]*e[5mC]*e[5mC]*e[5mC]*eT*eA*eA*eA*eA*eA*eT*e[5mC]*e[5mC]*eT*eT*eA*eT) [compound 327888] = 0.47
• 327926 (antisense eA*e[5mC]*eT*eA*eT*eG*e[5mC]*eA*eA*e[5mC]*e[5mC]*eT*eA*e[5mC]*eT*eA*e[5mC]*e[5mC]*eT*e[5mC]*eT) [compound 327926] = 0.85
• 327893 (antisense eA*eA*e[5mC]*e[5mC]*eA*e[5mC]*eA*e[5mC]*eA*eA*e[5mC]*e[5mC]*eT*eA*e[5mC]*eT*eA*e[5mC]*e[5mC]*eT*e[5mC]*eA) [compound 327893] = 0.97
• 327922 (antisense eT*e[5mC]*eA*eG*eT*eT*eT*eT*eG*e[5mC]*eA*eT*eG*eG*eA*eT*eT*eT*eG*e[5mC]*eA*e[5mC]*eA) [compound 327922] = 0.75
• 327967 (antisense eA*e[5mC]*eT*eG*eT*eA*e[5mC]*eA*eA*eA*e[5mC]*eT*eA*e[5mC]*eT*eA*e[5mC]*e[5mC]*eT*e[5mC]*eA) [compound 327967] = 0.86

Asked: I have this substance here, 327889 (antisense eG*eT*eG*eG*eT*eA*eA*eT*e[5mC]*e[5mC]*e[5mC]*eT*eG*eG*e[5mC]*eA*eA*eT*eG*eT*eG*eA*eT) [compound 327889] , and I need its recorded AP2 (mRNA expression).
Given back: 0.57

Asked: What about this substance? 327934 (antisense eG*eG*eT*eA*e[5mC]*eA*eA*eT*e[5mC]*eA*eA*e[5mC]*eG*eG*eT*e[5mC]*eG*eA*eT*eG*eG*eT) [compound 327934]
Given back: 0.66

Asked: Same question for 327919 (antisense eG*eA*eA*eA*e[5mC]*e[5mC]*e[5mC]*eA*eG*e[5mC]*eA*eG*eA*e[5mC]*eA*eA*eT*eG*eT*eA*eG*e[5mC]*eT) [compound 327919] please.
Given back: 0.48

Asked: Next record, please: 327930 (antisense eA*e[5mC]*eT*eA*eT*eA*e[5mC]*eA*eA*e[5mC]*e[5mC]*eT*e[5mC]*e[5mC]*eT*eA*e[5mC]*e[5mC]*eT*e[5mC]*eA) [compound 327930]
Given back: 0.86

Asked: Please answer likewise for 327901 (antisense eT*eG*eA*eG*e[5mC]*eT*eA*e[5mC]*eA*eG*eT*eG*e[5mC]*eT*eT*e[5mC]*eA*eT*e[5mC]*eT*e[5mC]*eA) [compound 327901]
Given back: 0.47

Asked: Next up: 327925 (antisense eT*eA*eG*e[5mC]*eT*eG*eG*eT*eT*eG*eA*eA*eG*eG*eG*eG*eA*e[5mC]*e[5mC]*eA*eA) [compound 327925]
Given back: 0.77

Asked: Would you mind doing 327931 (antisense eA*eA*e[5mC]*e[5mC]*eA*eT*eA*e[5mC]*eA*eA*e[5mC]*e[5mC]*eT*eA*e[5mC]*eT*eA*e[5mC]*e[5mC]*eT*e[5mC]*eA) [compound 327931] as well?
Given back: 1.00

Asked: Moving on to 327905 (antisense e[5mC]*eA*eG*eA*e[5mC]*eT*e[5mC]*e[5mC]*eG*eG*eT*eG*eG*eA*eA*eT*eG*eA*eA*eG*eG*eA) [compound 327905]
Given back: 0.68

Asked: Query 327890 (antisense eA*eG*e[5mC]*eA*e[5mC]*eA*eA*eA*e[5mC]*eT*eA*e[5mC]*eT*eA*e[5mC]*e[5mC]*eT*e[5mC]*eA) [compound 327890] next
Given back: 0.69

Asked: Likewise for 327941 (antisense eA*eA*e[5mC]*e[5mC]*e[5mC]*eA*e[5mC]*e[5mC]*eG*eA*e[5mC]*eA*eG*e[5mC]*eA*eA*eT*eG*eA*eA*eT*eG*eT*eT) [compound 327941] ?
Given back: 0.88

Asked: Same question for 327938 (antisense eA*eA*e[5mC]*eA*eA*eT*eA*e[5mC]*eA*eA*e[5mC]*eT*eT*eA*e[5mC]*eT*eA*e[5mC]*e[5mC]*eT*e[5mC]*eA) [compound 327938] please.
Given back: 0.86

* * *

System: HeLa cells
Experiment: Cell cycle assay in HeLa cells
Format: cell-based, human
Details: HeLa cells, 100 nM, 48 hours; percentage of cells in phase, average of replicates
Method: In some embodiments, HeLa cells were plated on collagen-coated 24-well plates at 50,000-60,000 cells per well, and allowed to attach to wells overnight. […] In some embodiments, HeLa cells were also treated with oligomeric compounds targeting miRNAs. […] The cell cycle profile was analyzed with the ModFit program (Verity Software House, Inc., Topsham Me.). […]
In the oligonucleotide strings, read from the 5' end, every base follows the letter of its sugar. An asterisk marks phosphorothioate; unmarked linkages are phosphodiester. Other units and linkages are bracketed, terminal groups are in braces. A string of capitals states the bases alone. e = 2'-O-(2-methoxyethyl) (MOE); [5mC] = 5-methylcytosine; d = 2'-deoxy (DNA)
REPORTED_METRIC: % cells in cell cycle phase: S (%)
Report only the number, with the unit % understood.

Asked: Given 327905 (antisense e[5mC]*eA*eG*eA*e[5mC]*eT*e[5mC]*e[5mC]*eG*eG*eT*eG*eG*eA*eA*eT*eG*eA*eA*eG*eG*eA) [compound 327905] , state its recorded % cells in cell cycle phase: S.
Given back: 30

Asked: Another: 328403 (antisense eA*eG*eG*e[5mC]*e[5mC]*dT*dA*dT*dT*d[5mC]*d[5mC]*dT*dG*dT*dA*eG*e[5mC]*eA*eA*eA) [compound 328403]
Given back: 29

Asked: Now the substance 328383 (eA*eG*eA*eG*eG*dG*dG*dA*dG*dA*d[5mC]*dG*dA*dG*dA*eG*e[5mC]*eA*e[5mC]*eT) [compound 328383]
Given back: 34

Asked: Please do the same for 327902 (antisense eG*eG*e[5mC]*eT*eG*eT*e[5mC]*eA*eA*eT*eT*e[5mC]*eA*eT*eA*eG*eG*eT*e[5mC]*eA*eG) [compound 327902] as well.
Given back: 30
